- protocol_notes: G protein-coupled receptor (GPCR) small molecule agonists, calcium flux assay: HEK293 wild type cell line counter screen (AID 1920065); also: % is scaled to controls: 0 for no effect and ±100 for the full control effect
- applied_conditions: HEK293 WT calcium flux, fluorescence, agonist mode; series mostly up to 57.6 µM
The source made the active and inactive calls. Calls follow the shape of the full dose curve.
reported_endpoint: activation

Record excerpt, results attached:
// query activation value for entry CC(=O)N(CC(O)CO)c1c(I)c(C(=O)NCC(O)CO)c(I)c(C(=O)NCC(O)CO)c1I (stereo not drawn)
inactive

Would you kindly repeat that for CCC(C)(C)C ?
inactive

Would you kindly repeat that for N[C@@H](CSSC[C@H](N)C(=O)O)C(=O)O ?
-0.257% [at 0.217 µM] (inactive)

Would you kindly repeat that for Cc1ccccc1OCC1CO1 (stereo not drawn) ?
inactive

Would you kindly repeat that for CC(C)(c1cc(Br)c(O)c(Br)c1)c1cc(Br)c(O)c(Br)c1 ?
inactive

---
// query activation value for entry C=CCOCC(CO)(COCC=C)COCC=C
inactive

Would you kindly repeat that for NCc1ccccc1Sc1ccccc1CO ?
inactive

Would you kindly repeat that for O=C(Nc1ccc([N+](=O)[O-])cc1)Nc1ccc([N+](=O)[O-])cc1 (tested in a mixture with another compound) ?
inactive

---

- protocol_notes: p53 small molecule agonists, cell-based qHTS assay (AID 1963582); also: % is scaled to controls: 0 for no effect and ±100 for the full control effect
- applied_conditions: HCT-116 p53RE-bla reporter, beta-lactamase FRET ratio, 16 h; series mostly up to 66 µM
Results filed as inconclusive are left out. Calls of active or inactive are those of the source. The call rests on the fitted dose curve; in most records, active means well fitted activation curve with a large enough effect in the signal ratio in the repeat runs (not every such curve was filed as active); inconclusive means weak or mixed curves; inactive means flat fitted curve, though single readings scatter; the % refers to the signal ratio.
reported_endpoint: activation

Record excerpt, results attached:
// query activation value for entry CCCCC(CC)COC(=O)CCCCCCCC(=O)OCC(CC)CCCC (configuration not stated)
inactive

Would you kindly repeat that for CCC(CO)(CO)CO ?
inactive

Would you kindly repeat that for CC(C#N)(CCC(=O)O)N=NC(C)(C#N)CCC(=O)O (configuration not stated) ?
inactive

Would you kindly repeat that for CC(=O)Nc1c(I)cc(I)c(C(=O)O)c1I ?
inactive

Would you kindly repeat that for CC/C=C\CCOC(=O)CCCCC ?
inactive

---
// query activation value for entry CC(C)(c1ccccc1)c1ccc(Nc2ccc(C(C)(C)c3ccccc3)cc2)cc1
inactive

Would you kindly repeat that for COc1nc(C)nc(NC(=O)NS(=O)(=O)c2ccccc2OCCCl)n1 ?
inactive

---

- protocol_notes: p53 small molecule agonists, cell-based qHTS assay: qHTS cell viability counter screen (AID 1963581); also: potency is read from the fitted curve at half-maximal effect; nearly all actives have a fitted effect of over 45% in size
- applied_conditions: p53RE-bla HCT-116 viability, ATP luminescence, 16 h; series mostly up to 66 µM
Records with an inconclusive call do not appear. Calls of active or inactive are those of the source. Calls follow the shape of the full dose curve.
reported_endpoint: Potency

Record excerpt, results attached:
// query Potency value for entry CCCCC(CC)COC(=O)CC(C(=O)OCC(CC)CCCC)S(=O)(=O)O (stereo not given)
39.2 µM (active)

Would you kindly repeat that for C=CC(=O)OCCCCCC ?
0.363 µM (active)

Would you kindly repeat that for COc1ccc(CCN2CCC(Nc3nc4ccccc4n3Cc3ccc(F)cc3)CC2)cc1 ?
13.2 µM (active)

Would you kindly repeat that for CCCCC(CC)COC(=O)c1ccc(O)cc1 (stereo not given) ?
40.6 µM (active)

---
// query Potency value for entry Clc1ccc(C(c2ccccc2Cl)C(Cl)Cl)cc1 (stereo not given)
40.8 µM (active)

---

- study_target: KiSS-1 receptor (Homo sapiens)
- protocol_notes: Human kisspeptin (KISS1R) small molecule agonists, calcium flux assay in KISS1R-HEK293 cells (AID 1920064); also: % is scaled to controls: 0 for no effect and ±100 for the full control effect
- applied_conditions: KISS1R-HEK293, calcium flux fluorescence, agonist; series mostly up to 76.8 µM
Active and inactive are the calls of the source. The call rests on the fitted dose curve; in most records, active means well fitted activation curve with a large enough effect in the repeat runs; inconclusive means weak or mixed curves; inactive means flat fitted curve, though single readings scatter.
reported_endpoint: activation

Record excerpt, results attached:
// query activation value for entry O=C(O)CCCCCCCCCCC(=O)O
inactive

Would you kindly repeat that for CC(C)=CCC/C(C)=C/C#N ?
inactive

Would you kindly repeat that for CCC(C)(C)C1CCC(=O)CC1 ?
inactive

Would you kindly repeat that for Cc1ccccc1C(N)=O ?
inactive

Would you kindly repeat that for CCO[Si](CCCN=C=O)(OCC)OCC ?
inactive

Would you kindly repeat that for CC(C)c1ccc2c(C(C)C)cc(C(C)C)c(S(=O)(=O)O)c2c1 ?
inactive

Would you kindly repeat that for Cn1c(=O)c2c(ncn2C)n(C)c1=O ?
inactive

Would you kindly repeat that for CC(C)CCCC(C)CCO (stereo not given) ?
inactive

// next item, activation requested
// query activation value for entry COC(=O)Nc1nc2ccc(S(=O)c3ccccc3)cc2[nH]1 (stereo not given)
inactive
